- TEST SYSTEM: T1, human cKIT ECD (Homo sapiens, UniProt P10721)
- T1 construct: Human cKIT tr. variant 2, residues 26-520-TAG; made in house; host or cells: HEK293 derived cell lines (293FS), transient transfection
- T1 sequence (P10721 with tags, fused parts or gaps isoform P10721-2): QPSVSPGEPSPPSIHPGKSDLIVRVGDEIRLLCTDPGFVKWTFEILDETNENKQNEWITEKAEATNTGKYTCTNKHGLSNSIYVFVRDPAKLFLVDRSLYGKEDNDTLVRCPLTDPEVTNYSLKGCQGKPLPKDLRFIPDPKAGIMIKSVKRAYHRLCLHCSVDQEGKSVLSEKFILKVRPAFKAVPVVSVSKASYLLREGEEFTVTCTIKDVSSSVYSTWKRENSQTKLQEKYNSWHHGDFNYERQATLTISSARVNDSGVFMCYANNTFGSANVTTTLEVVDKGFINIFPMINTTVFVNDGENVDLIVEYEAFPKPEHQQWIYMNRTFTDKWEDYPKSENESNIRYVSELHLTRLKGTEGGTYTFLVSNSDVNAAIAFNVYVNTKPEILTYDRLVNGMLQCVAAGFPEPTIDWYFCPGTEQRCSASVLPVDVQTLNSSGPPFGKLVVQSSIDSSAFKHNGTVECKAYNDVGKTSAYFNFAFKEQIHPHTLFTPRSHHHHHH
- ASSAY: SPR (Biacore 2000) affinity measurement
- Format: binding
- EXPERIMENTAL CONTEXT: 25° C.
MEASUREMENT KIND: Affinity human cKIT (nM)

molecule="NEG086: anti-cKIT antibody of Table 1; VH SEQ ID NO 100, VL SEQ ID NO 109 (antibody, V domains shown) VH: EVQLVESGGGLVQPGGSLRLSCAASGFTFSDYYMAWVRQAPGKGLEWVANINQIAGSTYYVDSVQGRFTISRDNAKNSLYLQMNSLRAEDTAVYYCARGDYYGTTYWYFDVWGQGTTVTVSS VL: DIQMTQSPSSLSASVGDRVTITCRASQSISSYLNWYQQKPGKAPKLLIYYTSRLQSGVPSRFSGSGSGTDFTLTISSLQPEDFATYYCQQGRRLWSFGGGTKVEIK" data_value="nanomolar level"
molecule="NEG027: anti-cKIT antibody of Table 1; VH SEQ ID NO 64, VL SEQ ID NO 73 (antibody, V domains shown) VH: EVQLVESGGGLVQPGGSLRLSCAASGFTFSDYYMAWVRQAPGKGLEWVASINQNTGSTYYLDSVRGRFTISRDNAKNSLYLQMNSLRAEDTAVYYCARGDYYGTTYWYFDVWGQGTTVTVSS VL: EIVMTQSPATLSLSPGERATLSCRASQDISNYLNWYQQKPGQAPRLLIYYTSRLQSGIPARFSGSGSGTDYTLTISSLEPEDFAVYYCQQGKKLWSFGGGTKVEIK" data_value="nanomolar level"
molecule="NEG087: anti-cKIT antibody of Table 1; VH SEQ ID NO 118, VL SEQ ID NO 127 (antibody, V domains shown) VH: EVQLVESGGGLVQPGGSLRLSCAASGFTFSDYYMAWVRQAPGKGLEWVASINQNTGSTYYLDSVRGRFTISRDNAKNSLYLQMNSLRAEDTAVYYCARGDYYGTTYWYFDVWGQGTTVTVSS VL: DIQMTQSPSSLSASVGDRVTITCRASQSISSYLNWYQQKPGKAPKLLIYYTSRLQSGVPSRFSGSGSGTDFTLTISSLQPEDFATYYCQQGRRLWSFGGGTKVEIK" data_value="nanomolar level"
